// data source = patent US9096582B2

- targetUnderTest: γ-secretase (Homo sapiens)
- Construct: Human embryonic kidney (HEK) 293 cells stably transfected with APPsw-lon in pcDNA3.1 vector; endogenous in cells
- testProtocol: Cell based γ-secretase assay (Aβ42 in conditioned media, MSD sandwich immunoassay)
- conditionInfo: HEK 293 cells stably transfected with APPsw-lon; 5 hrs treatment; means of two independent experiments
valueType: pIC50
Recall that pIC50 is obtained by taking minus log10 of the concentration measured in molar.

Solved cases below.
INSERT INTO measurements (compound, measured) VALUES
  ('COc1cc(-c2noc3c2CCCC3(O)Cc2cc(F)cc(F)c2)ccc1-n1cnc(C)c1 (racemic)', 6.82),
  ('COc1cc(-c2noc3c2CCCC3NCc2ccc(F)cc2)ccc1-n1cnc(C)c1 (racemic)', 6.88);

Q: Please look up its pIC50: COc1cc(-c2noc3c2CCCC3c2cc(F)cc(F)c2)ccc1-n1cnc(C)c1 (racemic)
A: 6.95
